Quick reference for SPOT intensity among some binders
Target: T1, Nbp2, Q12163
T1 sequence (Q12163 103-180, looked up): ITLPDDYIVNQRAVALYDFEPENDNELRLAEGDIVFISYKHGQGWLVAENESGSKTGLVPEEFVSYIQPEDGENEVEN
Test: SPOT array
Settings: median of control spots 357
measurement.name: SPOT intensity

> print(dat)
            binder  measurement.name  endpoint.value
1  ERPKRRAPPPVPKKP    SPOT intensity              58
2  LPMNIQPDLPPRKIM    SPOT intensity               6
3  VFQFQMPTTPISTKM    SPOT intensity               3
4  IRMPSNPALPKKLLN    SPOT intensity              15

The measurements presented in this section are drawn from paper PMC2756588.
